tested on: NF-κB pathway (SEAP) in THP1-Dual cells; assay: THP-1 Dual cell SEAP assay (L18-MDP stimulated); format: cell-based; details: Homo sapiens, THP1-Dual, read-out: NFkB THP1 IC50
measured.endpoint: IC50

Observe how each entry below is paired with its result.
chemical.structure: COc1cc2ncc(-c3cc(F)nc(NCCCC(C)(C)O)c3)n2cc1S(=O)(=O)C(C)(C)C
IC50: < 50 nM
--
chemical.structure: CCCS(=O)(=O)Nc1cc(-c2cnc3cc(OC)c(S(=O)(=O)C(C)(C)C)cn23)cc(F)c1OCC
IC50: 250 to 1000 nM
--
chemical.structure: COc1cc2ncc(-c3ccc(NS(C)(=O)=O)nc3)n2cc1S(=O)(=O)C(C)(C)C
IC50: > 1000 nM
--
chemical.structure: COc1cc2ncc(-c3cc(N)c(=O)n(C)c3)n2cc1S(=O)(=O)C(C)(C)C
IC50: 250 to 1000 nM
--
chemical.structure: COc1cc2ncc(-c3cc(F)nc(NC[C@@H](F)CO)c3)n2cc1S(=O)(=O)C(C)(C)C
IC50: < 50 nM
--
chemical.structure: CCCS(=O)(=O)Nc1cccc(-c2cnc3cc(OC)c(S(=O)(=O)C(C)(C)C)cn23)c1
IC50: 250 to 1000 nM
--
chemical.structure: COc1cc2ncc(-c3cc(N)ccc3F)n2cc1S(=O)(=O)C(C)(C)C
IC50: > 1000 nM
--
chemical.structure: CCCS(=O)(=O)Nc1cc(-c2cnc3cc(OC)c(S(=O)(=O)C(C)(C)C)cn23)ccc1OC
IC50: 250 to 1000 nM

Please state IC50 for every compound in the list that follows.
1. COc1cc2ncc(-c3cc(C)c(OC)c(NCCCO)n3)n2cc1S(=O)(=O)C(C)(C)C
2. COc1cc2ncc(-c3ccc(OC(F)F)c(N)c3)n2cc1S(=O)(=O)C(C)(C)C
3. COc1cc2ncc(-c3cc(F)c(OC)c(C#N)c3)n2cc1S(=O)(=O)C(C)(C)C
4. COc1cc2ncc(-c3ccc(N)cn3)n2cc1S(=O)(=O)C(C)(C)C
5. COc1cc2ncc(-c3cc(F)nc(NCCC4(O)COC4)c3)n2cc1S(=O)(=O)C(C)(C)C
6. COc1cc2ncc(-c3cccc(NS(=O)(=O)C(C)C)c3)n2cc1S(=O)(=O)C(C)(C)C
7. CNc1ccc(-c2cnc3cc(OC)c(S(=O)(=O)C(C)(C)C)cn23)cn1
8. COc1cc2ncc(-c3cc(F)nc(N4CCC(O)CC4)c3)n2cc1S(=O)(=O)C(C)(C)C

result:
1. 250 to 1000 nM
2. 50 to 250 nM
3. > 1000 nM
4. > 1000 nM
5. 250 to 1000 nM
6. 250 to 1000 nM
7. > 1000 nM
8. < 50 nM
